What residual activity was measured for each of the following?
molecular target: RPS6KA5 KD2 (human); assay: radiometric filter-binding kinase assay, Kinase HotSpot; conditions: compound 0.5 µM; ATP 10 µM
Number only, in %; omit the unit.

RPS6KA5 KD2 (human) / residual activity / Cc1cncc2cccc(S(=O)(=O)N3CCCN(C(=O)CN)C[C@H]3C)c12 : value? 100

What reported residual activity corresponds to C[C@@H]1CCN(C(=O)CC#N)C[C@@H]1N(C)c1ncnc2[nH]ccc12 on RPS6KA5 KD2 (human)? 94.8

What measured residual activity is associated with Ic1cccc(CSc2nnc(-c3ccncc3)o2)c1 on RPS6KA5 KD2 (human)? 97.2

Test system RPS6KA5 KD2 (human); read-out residual activity; what value for NC(=O)c1cccc(-c2cc(Nc3ccc(OC(F)(F)F)cc3)ncn2)c1 ? 104

// lookup residual activity | system=RPS6KA5 KD2 (human) | key= CS(=O)(=O)CCNCc1ccc(-c2ccc3ncnc(Nc4ccc(OCc5cccc(F)c5)c(Cl)c4)c3c2)o1 98.3

What residual activity appears in the records for this compound with RPS6KA5 KD2 (human)? COc1cc2ncnc(Nc3ccc(OCc4ccccc4)cc3)c2cc1OC 103

// lookup residual activity | system=RPS6KA5 KD2 (human) | key= CN(C)CCCn1cc(C2=C(c3c[nH]c4ccccc34)C(=O)NC2=O)c2ccccc21 17

Test system RPS6KA5 KD2 (human); read-out residual activity; what value for COc1ccc2c(c1)c(C1=C(c3c[nH]c4ccccc34)C(=O)NC1=O)cn2CCCN(C)C ? 61.3

Which measured residual activity belongs to CO[C@@H]1[C@H](N(C)C(=O)c2ccccc2)C[C@H]2O[C@]1(C)n1c3ccccc3c3c4c(c5c6ccccc6n2c5c31)C(=O)NC4 , tested on RPS6KA5 KD2 (human)? 13.2

What reported residual activity corresponds to N#Cc1c[nH]c2c[nH]/c(=N\Cc3cccnc3)cc2/c1=N\c1ccc(F)c(Cl)c1 on RPS6KA5 KD2 (human)? 102

###

target: MERTK (human); assay: radiometric filter-binding kinase assay, Kinase HotSpot; settings: compound 0.5 µM; ATP 10 µM
readout.name: residual activity (%)
Express the result in % but write the number alone.

Could you tell me which residual activity is on file for CN(C)CCCn1cc(C2=C(c3c[nH]c4ccccc34)C(=O)NC2=O)c2ccccc21 ? 92.1

What does the data say about its residual activity? Entry: N#C/C(=C\c1ccc(O)c(O)c1)C(=O)NCc1ccccc1 89

What does the record list as residual activity for Fc1ccc(-c2nc3n(c2-c2ccncc2)CCS3)cc1 ? 88.7

Value lookup for residual activity; key = CCCCc1c(-c2ccc(OC)cc2)[nH]c2nccnc12 92.6

Form field: reported residual activity of O=C1C(Cl)=C(N2C(=O)CCC2=O)C(=O)c2ccccc21 90.3

###

tested on: FLT4 (human), P35916 [Q890H]; assay: radiometric filter-binding kinase assay, Kinase HotSpot; conditions: compound 0.5 µM; ATP 10 µM
Sequence (P35916 whole entry, looked up, stated change not applied): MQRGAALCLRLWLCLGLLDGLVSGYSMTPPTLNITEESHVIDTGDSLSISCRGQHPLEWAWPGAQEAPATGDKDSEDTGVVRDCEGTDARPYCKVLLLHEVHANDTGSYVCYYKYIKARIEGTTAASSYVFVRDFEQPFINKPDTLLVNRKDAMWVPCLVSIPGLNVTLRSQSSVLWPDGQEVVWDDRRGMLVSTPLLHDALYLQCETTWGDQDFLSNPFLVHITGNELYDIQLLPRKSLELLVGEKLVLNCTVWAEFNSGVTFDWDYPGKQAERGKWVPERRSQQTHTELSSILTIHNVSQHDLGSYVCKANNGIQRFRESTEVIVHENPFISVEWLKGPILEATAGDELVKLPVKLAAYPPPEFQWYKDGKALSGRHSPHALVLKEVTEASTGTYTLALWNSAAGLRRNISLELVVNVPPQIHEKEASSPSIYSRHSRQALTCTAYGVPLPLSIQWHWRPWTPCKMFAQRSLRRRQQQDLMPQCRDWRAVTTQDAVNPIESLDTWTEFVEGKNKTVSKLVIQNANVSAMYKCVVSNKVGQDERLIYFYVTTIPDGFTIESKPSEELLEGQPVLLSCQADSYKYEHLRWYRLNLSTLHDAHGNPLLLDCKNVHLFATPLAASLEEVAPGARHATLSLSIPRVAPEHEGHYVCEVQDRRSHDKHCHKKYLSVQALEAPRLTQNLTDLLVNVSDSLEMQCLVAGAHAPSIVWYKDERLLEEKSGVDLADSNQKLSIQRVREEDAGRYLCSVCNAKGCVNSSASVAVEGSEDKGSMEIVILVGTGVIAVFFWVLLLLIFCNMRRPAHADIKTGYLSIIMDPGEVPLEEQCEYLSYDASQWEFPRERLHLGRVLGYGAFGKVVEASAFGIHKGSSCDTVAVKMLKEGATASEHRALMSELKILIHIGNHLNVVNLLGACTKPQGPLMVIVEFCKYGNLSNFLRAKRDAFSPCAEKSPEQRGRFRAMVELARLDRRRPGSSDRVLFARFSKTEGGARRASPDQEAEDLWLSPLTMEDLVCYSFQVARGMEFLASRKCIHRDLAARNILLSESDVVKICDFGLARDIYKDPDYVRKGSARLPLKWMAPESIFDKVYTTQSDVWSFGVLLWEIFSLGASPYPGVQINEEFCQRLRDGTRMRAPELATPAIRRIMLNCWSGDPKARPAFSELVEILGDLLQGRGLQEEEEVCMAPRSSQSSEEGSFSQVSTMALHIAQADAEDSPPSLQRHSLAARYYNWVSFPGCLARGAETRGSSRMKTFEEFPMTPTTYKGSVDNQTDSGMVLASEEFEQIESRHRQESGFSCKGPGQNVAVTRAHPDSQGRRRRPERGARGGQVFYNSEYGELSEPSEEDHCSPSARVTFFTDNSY
Mark class 0 for residual activity values under 90%, and class 1 for everything at or above.

Exam item: decide whether the reported residual activity for O=C(O)c1ccc2c3c1cccc3c(=O)n1c3ccccc3nc21 is at least 90%. class 0

Dear colleague, could you confirm whether Nc1nnc2[nH]c3ccccc3nc1-2 has residual activity at or above 90%? class 1

Test whether the molecule O=C(c1ccccc1)c1ccc(N2CCOCC2)cc1O records residual activity of 90% or higher. class 1

Form field: residual activity at least 90%? Entry: O=C1Nc2ccccc2/C1=C1\Nc2ccccc2\C1=N/O class 0

Exam item: decide whether the reported residual activity for Cc1ccc(NC2=CC(=O)c3sc(C)nc3C2=O)cc1 is at least 90%. class 1

Determine whether this molecule has residual activity no lower than 90%: CCCC(=O)Oc1ccc2[nH]c(C(=O)c3cc4ccccc4[nH]3)cc2c1 class 1

Reported residual activity reaches at least 90% for Cn1sc(=O)n(Cc2ccccc2)c1=O ? class 0

Could you tell me if the measured residual activity of Cc1[nH]c(/C=C2\C(=O)Nc3ccc(S(=O)(=O)N(C)c4cccc(Cl)c4)cc32)c(C)c1C(=O)N1CCN(C)CC1 reaches 90% or more? class 0

# check: residual activity of Clc1ccc(Nc2nnc(Cc3ccncc3)c3ccccc23)cc1 is greater than or equal to 90% class 0

Reported residual activity reaches at least 90% for c1ccc(-c2n[nH]c3c2oc2ccccc23)cc1 ? class 1

Record O=C1NC(=O)/C(=C\c2ccc3nccnc3c2)S1 ; criterion: residual activity no lower than 90%. Met? class 1

Is it the case that O=S(=O)(NCCNC/C=C/c1ccc(Br)cc1)c1cccc2cnccc12 has residual activity reaching or exceeding 90%? class 1

// inclusive: residual activity at least 90%? input: CC(C)c1nn(-c2c(Cl)cccc2Cl)c2nc(Cc3ccc(OCCO)cc3)nc(O)c12 class 1

Textbook exercise: given the entry COc1cc2ncnc(N3CCN(C(=O)Nc4ccc(Oc5ccccc5)cc4)CC3)c2cc1OC , state whether its residual activity is greater than or equal to 90%. class 1

Answer whether residual activity of CCCNC(=O)Nc1ccc(Oc2ncnc3cc(OC)c(OC)cc23)cc1Cl is greater than or equal to 90%. class 0

Could you please find out whether O=C(c1cc2cc(O)ccc2[nH]1)c1cc2cc(O)ccc2[nH]1 has residual activity that meets 90% or exceeds it? class 0

Determine whether this molecule has residual activity no lower than 90%: Nc1ncnc2c1cnn2-c1ccccc1 class 1

Decide: residual activity of O=C(Nc1cccc(Nc2cc(Nc3cccc(C(F)(F)F)c3)ncn2)c1)C1CC1 >= 90%? class 1

I'd appreciate it if you could say whether CN(C)S(=O)(=O)c1ccc2c(c1)/C(=C/c1cc3c([nH]1)CCCC3)C(=O)N2 has residual activity at least equal to 90%. class 0

Check the entry CCN(CC)CCCCN1c2ccccc2Oc2ccc(Cl)cc21 : does residual activity equal or exceed 90%? class 1

Please tell me: is the molecule Oc1cccc(-c2nc(N3CCOCC3)c3oc4ncccc4c3n2)c1 at or over 90% in terms of residual activity? class 1

Quick check: does N#C/C(=C(/N)Sc1ccc(N)cc1)c1ccccc1C(F)(F)F have residual activity greater than or equal to 90%? class 1

###

Exercise: for every item that follows, state its recorded residual activity.
target: ADRBK1 (human) (UniProt P25098); assay: radiometric filter-binding kinase assay, Kinase HotSpot; details: compound 0.5 µM; ATP 10 µM
Sequence (P25098 whole entry, looked up): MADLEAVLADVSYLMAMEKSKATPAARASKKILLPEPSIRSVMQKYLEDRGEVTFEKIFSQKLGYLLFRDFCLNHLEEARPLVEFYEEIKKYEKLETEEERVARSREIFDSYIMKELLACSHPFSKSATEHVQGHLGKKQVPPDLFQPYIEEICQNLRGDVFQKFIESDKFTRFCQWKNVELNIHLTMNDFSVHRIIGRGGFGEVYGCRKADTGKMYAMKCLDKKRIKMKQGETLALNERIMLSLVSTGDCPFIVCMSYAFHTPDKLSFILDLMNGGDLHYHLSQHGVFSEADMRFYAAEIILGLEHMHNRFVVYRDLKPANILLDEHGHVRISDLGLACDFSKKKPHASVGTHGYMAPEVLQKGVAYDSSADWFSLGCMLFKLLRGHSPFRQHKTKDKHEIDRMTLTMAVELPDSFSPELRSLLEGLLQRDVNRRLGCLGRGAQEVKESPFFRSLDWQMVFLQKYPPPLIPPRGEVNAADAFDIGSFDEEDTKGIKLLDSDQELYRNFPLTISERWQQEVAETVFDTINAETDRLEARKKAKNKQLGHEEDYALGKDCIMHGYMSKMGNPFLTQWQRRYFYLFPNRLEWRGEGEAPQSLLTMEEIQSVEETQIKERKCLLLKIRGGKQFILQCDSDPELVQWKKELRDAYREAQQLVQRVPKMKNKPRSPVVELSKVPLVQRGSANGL
Record the value in %, omitting the unit from your answer.

Form field: residual activity recorded for O=C1NC(=O)c2c1c1c3ccccc3[nH]c1n1cncc21 with ADRBK1 (human) (UniProt P25098) (enter value) 107

// fetch ADRBK1 (human) (UniProt P25098) residual activity for Cc1cncc2cccc(S(=O)(=O)N3CCCN(C(=O)CN)C[C@H]3C)c12 101

Find the measured residual activity: item N#Cc1c[nH]c2c[nH]/c(=N\Cc3cccnc3)cc2/c1=N\c1ccc(F)c(Cl)c1 , target or system ADRBK1 (human) (UniProt P25098). 95.7

Lab request: please report residual activity under test system ADRBK1 (human) (UniProt P25098) for CO[C@@H]1[C@H](N(C)C(=O)c2ccccc2)C[C@H]2O[C@]1(C)n1c3ccccc3c3c4c(c5c6ccccc6n2c5c31)C(=O)NC4 102

Quick check: residual activity on ADRBK1 (human) (UniProt P25098), item COc1ccc(C(=O)Nc2sc3c(c2C(N)=O)CCCC3)cc1OC ? 96.8

I'm curious: which residual activity was measured for CCCCc1c(-c2ccc(OC)cc2)[nH]c2nccnc12 tested on ADRBK1 (human) (UniProt P25098)? 78.5

###

biological target: ACVR1B (human) (UniProt P36896); test: radiometric filter-binding kinase assay, Kinase HotSpot; settings: compound 0.5 µM; ATP 10 µM
Sequence (P36896 whole entry, looked up): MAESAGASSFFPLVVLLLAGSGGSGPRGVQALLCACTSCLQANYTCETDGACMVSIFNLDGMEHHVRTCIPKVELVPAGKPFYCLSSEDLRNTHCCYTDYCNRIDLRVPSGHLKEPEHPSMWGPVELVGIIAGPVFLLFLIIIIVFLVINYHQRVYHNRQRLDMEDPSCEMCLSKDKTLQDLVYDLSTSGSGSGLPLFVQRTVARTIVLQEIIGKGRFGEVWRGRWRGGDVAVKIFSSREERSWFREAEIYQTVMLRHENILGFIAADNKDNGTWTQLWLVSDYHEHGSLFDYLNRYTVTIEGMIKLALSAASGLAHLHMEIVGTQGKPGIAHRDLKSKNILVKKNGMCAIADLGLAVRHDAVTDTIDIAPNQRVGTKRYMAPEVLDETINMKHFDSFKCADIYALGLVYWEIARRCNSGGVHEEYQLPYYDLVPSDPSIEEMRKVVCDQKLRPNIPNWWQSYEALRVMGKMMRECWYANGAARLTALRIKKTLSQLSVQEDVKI
readout.name: residual activity (%)
Could you give me the number in %? Just the number is fine.

Record lookup: for ACVR1B (human) (UniProt P36896), what residual activity belongs to CS(=O)(=O)CCNCc1ccc(-c2ccc3ncnc(Nc4ccc(OCc5cccc(F)c5)c(Cl)c4)c3c2)o1 ? 98.7

What is its residual activity for ACVR1B (human) (UniProt P36896)? Entry: COc1ccc2c(c1)/C(=C/c1cnc[nH]1)C(O)=N2 105

Kindly state the measured residual activity obtained for Cc1cccc(-c2nc(C(C)(C)C)[nH]c2-c2ccc3c(c2)OCO3)n1 with ACVR1B (human) (UniProt P36896). 31

Record lookup: for ACVR1B (human) (UniProt P36896), what residual activity belongs to COc1cc2ncnc(Nc3ccc(OCc4ccccc4)cc3)c2cc1OC ? 102

Lab note: need residual activity for COc1ccc(C(=O)Nc2sc3c(c2C(N)=O)CCCC3)cc1OC on ACVR1B (human) (UniProt P36896), anyone have it? 101

ACVR1B (human) (UniProt P36896) / residual activity / CN(C)c1ccc(/C=C2\C(=O)Nc3ccccc32)cc1 : value? 93.4

What residual activity appears in the records for this molecule with ACVR1B (human) (UniProt P36896)? CN(C)S(=O)(=O)c1ccc2c(c1)/C(=C/c1cc3c([nH]1)CCCC3)C(=O)N2 105
